Data origin: patent US20070254831A1

Target Or System: T1, soluble human FcRn (human, UniProt P55899 24-297; P61769 21-119, biotinylated (Sulfo-NHS-LC-Biotin) in the ELISA; amine-coupled to CM5 chip in SPR)
T1 construct: also called shFcRn; biotinylated shFcRn
T1 sequence (P55899 24-297 limits assumed, chain 1 of 2): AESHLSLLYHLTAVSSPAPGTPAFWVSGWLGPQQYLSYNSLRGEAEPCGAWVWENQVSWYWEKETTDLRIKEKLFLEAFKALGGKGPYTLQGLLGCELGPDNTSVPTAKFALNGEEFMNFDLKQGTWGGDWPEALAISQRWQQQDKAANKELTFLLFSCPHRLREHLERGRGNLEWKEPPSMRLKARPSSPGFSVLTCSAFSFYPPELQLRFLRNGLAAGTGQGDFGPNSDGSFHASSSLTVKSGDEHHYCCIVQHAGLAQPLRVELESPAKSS
T1 sequence (P61769 21-119 limits assumed, chain 2 of 2): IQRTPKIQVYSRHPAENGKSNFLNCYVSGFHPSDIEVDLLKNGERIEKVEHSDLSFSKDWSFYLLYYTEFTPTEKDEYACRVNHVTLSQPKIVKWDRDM
Measurement Protocol: SPR, pH 6
Numbered stars: 1 amine (or outer) side, 2 acyl side, 3 side chain; on linkers, the order of the positions; unused ones are H or OH. Square brackets hold non-standard residues; d marks the D form. Ends that are not written are not given here. X3 = 3(S)‑3‑amino‑2‑oxo‑1‑azepine acetic acid, O=C1[C@@H](N[*:1])CCCCN1CC(=O)[*:2]; 3‑amino‑2‑oxo‑1‑piperidine‑acetic acid = dipeptide mimetic in place of Gly-Gly; 6,5‑bicyclic dipeptide mimic = not defined here
Assay Endpoint: Kd (µM)

{"Binder": "RFVTGHF[6,5‑bicyclic dipeptide mimic]LYPA-NH2 (reading uncertain) [Peptide No. 207]", "Assay Endpoint": "Kd", "Quantitative Readout": 20}
{"Binder": "RFVTGHF[X3]LYPA-NH2 (N-terminus assumed; SMILES CC(C)C[C@H](NC(=O)CN1CCCC[C@H](NC(=O)[C@H](Cc2ccccc2)NC(=O)[C@H](Cc2c[nH]cn2)NC(=O)CNC(=O)[C@@H](NC(=O)[C@@H](NC(=O)[C@H](Cc2ccccc2)NC(=O)[C@@H](N)CCCNC(=N)N)C(C)C)[C@@H](C)O)C1=O)C(=O)N[C@@H](Cc1ccc(O)cc1)C(=O)N1CCC[C@H]1C(=O)N[C@@H](C)C(N)=O) [Peptide No. 208]", "Assay Endpoint": "Kd", "Quantitative Readout": 2.3}
{"Binder": "QRFVTGHF[3‑amino‑2‑oxo‑1‑piperidine‑acetic acid]WYPINGP-NH2 (also: further groups not given here) [Peptide No. 191]", "Assay Endpoint": "Kd", "Quantitative Readout": 333}
{"Binder": "RFVTGHFXLYPA (X at 8 = 3-amino-N-1-carboxymethyl-2,3,4,5-tetrahydro-1H-[1]-benzazepine-2-one (drawing CHEM-US-00097); linear; C-terminal amide) [Peptide No. 185]", "Assay Endpoint": "Kd", "Quantitative Readout": 3.1}
